Where do these numbers come from? They come from PubChem BioAssay AID2060503.

Below, each of the compounds is paired with its reported viability, T/C value.
Test system: 817829-284-R-J1-PDC complex spheroids, viability
TEST_METHOD_NOTES: Anticancer human tumor 817829-284-R-J1-PDC patient-derived colon adenocarcinoma cell line growth inhibition [GQUAD]
EXPERIMENTAL_CONTEXT: second compound 0.0316 µM; first compound 0.0316 µM; stronger effect = lower value
Text: DNA G-quadruplex Stabilizer Agents in Combinations in Complex Spheroids A high-throughput screen of multi-cell type tumor spheroids was designed to identify active combinations of DNA G-quadruplex stabilizer agents and targeted small molecules. […] Compounds. […] If the clinical Cmax for an agent had not been determined, the highest concentration tested was 10 microM. […]

Observe how each entry below is paired with its result.
COc1ncnc(C2CC2)c1-c1ncc2cnn(Cc3ccc(-c4nc(C(F)(F)F)cn4C(C)C)cc3)c2n1 + Cc1cnc(CNC(=O)c2c(=O)c3ccc(N4CCCN(C)CC4)nc3n3c2sc2ccccc23)cn1 | 63.5%
Cn1ncnc1[C@H]1c2n[nH]c(=O)c3cc(F)cc(c23)N[C@@H]1c1ccc(F)cc1 + CN(C)c1ccc(Nc2c3ccc(NC(=O)CCN4CCCC4)cc3nc3cc(NC(=O)CCN4CCCC4)ccc23)cc1 | 95%

Now for the compound whose viability, T/C we want.
Problem: Quote viability, T/C reported for O=C(NO)c1cnc(N2CCN(S(=O)(=O)c3ccc4ccccc4c3)CC2)nc1 + Cc1cnc(CNC(=O)c2c(=O)c3ccc(N4CCCN(C)CC4)nc3n3c2sc2ccccc23)cn1 please.
Result: 77.5%

====

Test system: 817829-284-R-J1-PDC complex spheroids, viability
TEST_METHOD_NOTES: Anticancer human tumor 817829-284-R-J1-PDC cell line growth inhibition [GQUAD];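 note: spheroids exposed to agents for 7 days before readout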;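 for viability, T/C: percent viability relative to DMSO vehicle control taken as 100%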
EXPERIMENTAL_CONTEXT: second compound 1 µM; first compound 3.16 µM; stronger effect = lower value
QUANTITY_KIND: viability, T/C (%)
Numbers only; they are read as %.

Here are 2 molecules together with their reported answers.
C=CC(=O)N1CCN(c2nc(=O)n(-c3c(C)ccnc3C(C)C)c3nc(-c4c(O)cccc4F)c(F)cc23)C(C)C1 (stereo not drawn) + CN(C)c1ccc(Nc2c3ccc(NC(=O)CCN4CCCC4)cc3nc3cc(NC(=O)CCN4CCCC4)ccc23)cc1 | 92.2
COc1cccc2c1C(=O)c1c(O)c3c(c(O)c1C2=O)CC(O)(C(=O)CO)CC3OC1CC(N)C(O)C(C)O1 (stereo not drawn) + CN(C)c1ccc(Nc2c3ccc(NC(=O)CCN4CCCC4)cc3nc3cc(NC(=O)CCN4CCCC4)ccc23)cc1 | 0.57

Shifting focus to the molecule that follows.
Problem: Using the record for CCCS(=O)(=O)Nc1ccc(F)c(C(=O)c2c[nH]c3ncc(-c4ccc(Cl)cc4)cc23)c1F + CN(C)c1ccc(Nc2c3ccc(NC(=O)CCN4CCCC4)cc3nc3cc(NC(=O)CCN4CCCC4)ccc23)cc1 , state its measured viability, T/C.
Result: 79.8

====

Each entry below carries its reported viability, T/C.
Tested on: 817829-284-R-J1-PDC complex spheroids, viability
TEST_METHOD_NOTES: Anticancer human tumor 817829-284-R-J1-PDC cell line growth inhibition [GQUAD];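 note: spheroids exposed to agents for 7 days before readout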;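 for viability, T/C: percent viability relative to DMSO vehicle control taken as 100%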
EXPERIMENTAL_CONTEXT: second compound 3.16 µM; first compound 0.0316 µM; stronger effect = lower value
I only need the number, in %, no unit after it.

Solved entries:
CC[C@@]1(O)C(=O)OCc2c1cc1n(c2=O)Cc2cc3c(CN(C)C)c(O)ccc3nc2-1 + CN(C)c1ccc(Nc2c3ccc(NC(=O)CCN4CCCC4)cc3nc3cc(NC(=O)CCN4CCCC4)ccc23)cc1 | 67.7
C=CC(=O)N1CCN(c2nc(=O)n(-c3c(C)ccnc3C(C)C)c3nc(-c4c(O)cccc4F)c(F)cc23)C(C)C1 (stereo not drawn) + Cc1cnc(CNC(=O)c2c(=O)c3ccc(N4CCCN(C)CC4)nc3n3c2sc2ccccc23)cn1 | 21.8

Problem: Identify the reported viability, T/C for the following entry. CC(=O)O[C@H]1C(=O)[C@@]2(C)[C@H]([C@H](OC(=O)c3ccccc3)[C@]3(O)C[C@H](OC(=O)[C@H](O)[C@@H](NC(=O)c4ccccc4)c4ccccc4)C(C)=C1C3(C)C)[C@]1(OC(C)=O)CO[C@@H]1C[C@@H]2O + Cc1cnc(CNC(=O)c2c(=O)c3ccc(N4CCCN(C)CC4)nc3n3c2sc2ccccc23)cn1
Result: 17.3

====

Overview of recorded IC50 for various compounds
System: 817829-284-R-J1-PDC complex spheroids, viability
TEST_METHOD_NOTES: Anticancer human tumor 817829-284-R-J1-PDC cell line growth inhibition [GQUAD];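 note: spheroids exposed to agents for 7 days before readout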
EXPERIMENTAL_CONTEXT: curve of first compound; second compound 1 µM

Take a look at these entries with their results.
Cc1[nH]c2ccccc2c1CCNCc1ccc(/C=C/C(=O)NO)cc1 + Cc1cnc(CNC(=O)c2c(=O)c3ccc(N4CCCN(C)CC4)nc3n3c2sc2ccccc23)cn1 | < 0.000999 µM
COc1cccc2c1C(=O)c1c(O)c3c(c(O)c1C2=O)CC(O)(C(=O)CO)CC3OC1CC(N)C(O)C(C)O1 (stereo not given) + Cc1cnc(CNC(=O)c2c(=O)c3ccc(N4CCCN(C)CC4)nc3n3c2sc2ccccc23)cn1 | < 0.0316 µM
Nc1ccn(C2OC(CO)C(O)C2(F)F)c(=O)n1 (stereo not given) + Cc1[nH]c2ccc(F)cc2c1-c1nc2c3cccnc3c3ncccc3c2[nH]1 | < 0.0316 µM
O=c1[nH]cc(F)c(=O)[nH]1 + CN(C)c1ccc(Nc2c3ccc(NC(=O)CCN4CCCC4)cc3nc3cc(NC(=O)CCN4CCCC4)ccc23)cc1 | 2.7 µM

Now for a further compound.
Problem: Specify IC50 for CC(=O)O[C@H]1C(=O)[C@@]2(C)[C@H]([C@H](OC(=O)c3ccccc3)[C@]3(O)C[C@H](OC(=O)[C@H](O)[C@@H](NC(=O)c4ccccc4)c4ccccc4)C(C)=C1C3(C)C)[C@]1(OC(C)=O)CO[C@@H]1C[C@@H]2O + Cc1[nH]c2ccc(F)cc2c1-c1nc2c3cccnc3c3ncccc3c2[nH]1 and stop.
Result: < 0.0316 µM

====

System: 817829-284-R-J1-PDC complex spheroids, viability
TEST_METHOD_NOTES: Anticancer human tumor 817829-284-R-J1-PDC cell line growth inhibition [GQUAD]; active = viability on the fitted dose curve at most 10% of control; inactive = the rest;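 note: spheroids exposed to agents for 7 days before readout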
EXPERIMENTAL_CONTEXT: second compound 1 µM; first compound 3.16 µM
Please state which outcome applies, choosing from TRUE (active), FALSE (inactive)

Nc1ccn(C2OC(CO)C(O)C2(F)F)c(=O)n1 (stereo unspecified) + Cc1[nH]c2ccc(F)cc2c1-c1nc2c3cccnc3c3ncccc3c2[nH]1 | TRUE
CC(C)(O)C1CCC(Nc2ccc3ncc(-c4cccc(C(F)(F)F)c4)n3n2)CC1 (stereo unspecified) + Cc1cnc(CNC(=O)c2c(=O)c3ccc(N4CCCN(C)CC4)nc3n3c2sc2ccccc23)cn1 | TRUE
O=C(NO)c1cnc(N2CCN(S(=O)(=O)c3ccc4ccccc4c3)CC2)nc1 + Cc1[nH]c2ccc(F)cc2c1-c1nc2c3cccnc3c3ncccc3c2[nH]1 | TRUE
COc1ncnc(C2CC2)c1-c1ncc2cnn(Cc3ccc(-c4nc(C(F)(F)F)cn4C(C)C)cc3)c2n1 + Cc1cnc(CNC(=O)c2c(=O)c3ccc(N4CCCN(C)CC4)nc3n3c2sc2ccccc23)cn1 | FALSE
C=CC(=O)N1CCN(c2nc(=O)n(-c3c(C)ccnc3C(C)C)c3nc(-c4c(O)cccc4F)c(F)cc23)C(C)C1 (stereo unspecified) + Cc1[nH]c2ccc(F)cc2c1-c1nc2c3cccnc3c3ncccc3c2[nH]1 | FALSE

Okay, now this compound:
Problem: Hey, what did the test say about Cc1cccc(N(C)C(=O)C2C(O)CCN2c2nc(C)cc(C(F)(F)F)c2C#N)c1 (stereo unspecified) + CN(C)c1ccc(Nc2c3ccc(NC(=O)CCN4CCCC4)cc3nc3cc(NC(=O)CCN4CCCC4)ccc23)cc1 ?
Result: FALSE

====

Test system: 817829-284-R-J1-PDC complex spheroids, viability
TEST_METHOD_NOTES: Anticancer human tumor 817829-284-R-J1-PDC cell line growth inhibition [GQUAD];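 note: spheroids exposed to agents for 7 days before readout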;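 for viability, T/C: percent viability relative to DMSO vehicle control taken as 100%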
EXPERIMENTAL_CONTEXT: second compound 0.1 µM; first compound 0.1 µM; stronger effect = lower value
QUANTITY_KIND: viability, T/C (%)
Record the value in %, omitting the unit from your answer.

Check out these entries, answers already filled in.
CC(C)n1c(=O)n(C)c2cnc3cc(F)c(-c4ccc(OCCCN5CCCCC5)nc4)cc3c21 + Cc1cnc(CNC(=O)c2c(=O)c3ccc(N4CCCN(C)CC4)nc3n3c2sc2ccccc23)cn1 | 27.3
CCCS(=O)(=O)Nc1ccc(F)c(C(=O)c2c[nH]c3ncc(-c4ccc(Cl)cc4)cc23)c1F + Cc1[nH]c2ccc(F)cc2c1-c1nc2c3cccnc3c3ncccc3c2[nH]1 | 107

Could you now look at the following compound, please?
Problem: # return viability, T/C of O=C(c1cc(Cc2n[nH]c(=O)c3ccccc23)ccc1F)N1CCN(C(=O)C2CC2)CC1 + Cc1[nH]c2ccc(F)cc2c1-c1nc2c3cccnc3c3ncccc3c2[nH]1 (system: 817829-284-R-J1-PDC complex spheroids, viability)
Result: 109
